The entries below come with measured pIC50 values attached.
- STUDY_TARGET: KCNT1 (KNa1.1, Slack) (Homo sapiens)
- Sequence (Q5JUK3 whole entry): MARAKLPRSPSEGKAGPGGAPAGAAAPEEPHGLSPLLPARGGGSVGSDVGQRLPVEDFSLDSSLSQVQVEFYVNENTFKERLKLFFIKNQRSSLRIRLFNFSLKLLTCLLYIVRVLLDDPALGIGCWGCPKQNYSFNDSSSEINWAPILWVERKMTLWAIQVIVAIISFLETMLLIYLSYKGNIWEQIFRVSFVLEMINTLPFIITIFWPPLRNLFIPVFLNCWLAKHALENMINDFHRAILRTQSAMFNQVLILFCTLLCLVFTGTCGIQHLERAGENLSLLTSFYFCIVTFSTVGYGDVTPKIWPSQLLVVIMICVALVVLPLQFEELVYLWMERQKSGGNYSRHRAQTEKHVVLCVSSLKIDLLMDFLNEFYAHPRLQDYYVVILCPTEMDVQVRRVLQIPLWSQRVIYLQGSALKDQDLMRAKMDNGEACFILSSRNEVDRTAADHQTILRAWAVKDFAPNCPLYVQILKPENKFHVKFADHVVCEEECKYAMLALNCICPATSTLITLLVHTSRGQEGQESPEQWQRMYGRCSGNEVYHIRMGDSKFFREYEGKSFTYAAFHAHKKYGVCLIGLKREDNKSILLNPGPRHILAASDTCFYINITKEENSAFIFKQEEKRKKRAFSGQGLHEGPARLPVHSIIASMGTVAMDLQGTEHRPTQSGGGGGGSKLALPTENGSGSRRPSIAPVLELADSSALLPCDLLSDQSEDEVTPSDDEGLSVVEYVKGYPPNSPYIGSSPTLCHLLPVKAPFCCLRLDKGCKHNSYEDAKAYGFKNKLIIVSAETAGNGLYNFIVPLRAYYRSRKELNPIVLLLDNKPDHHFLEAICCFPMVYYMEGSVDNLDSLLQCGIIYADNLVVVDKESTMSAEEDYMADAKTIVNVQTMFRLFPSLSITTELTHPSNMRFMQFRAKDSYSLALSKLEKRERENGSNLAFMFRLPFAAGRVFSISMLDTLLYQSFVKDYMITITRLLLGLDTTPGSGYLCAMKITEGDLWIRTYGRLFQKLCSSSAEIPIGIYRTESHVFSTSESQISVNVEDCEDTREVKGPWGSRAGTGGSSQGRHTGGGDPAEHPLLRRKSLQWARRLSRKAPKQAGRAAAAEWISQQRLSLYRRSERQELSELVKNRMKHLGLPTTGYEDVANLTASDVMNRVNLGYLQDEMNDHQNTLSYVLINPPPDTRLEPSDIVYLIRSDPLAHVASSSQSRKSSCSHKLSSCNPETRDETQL
- METHOD_DESCRIPTION: KCNT1 patch clamp assay (SyncroPatch 384PE automated patch clamp)
- REPORTED_CONDITIONS: tetracycline inducible HEK-TREX cell line; perforated patch; step from −80 mV to 0 mV; room temperature; read-out: KCNT1-WT IC50
pIC50: −log10 of the molar value.

Below, each entry is followed by its recorded pIC50 result.
Cc1nn(C(C)C)cc1C(=O)NC(C)c1nc(-c2ccc(C(F)(F)F)cc2)no1 (stereo not shown)
4.70 to 6.00
CCOc1cc(-c2noc([C@H](C)NC(=O)OC(C)(C)C)n2)ccn1
≥ 6.00
Cn1nc(C(F)(F)F)cc1C(=O)NC(CC#N)c1nc(-c2cccc(F)c2)no1 (stereo not shown) [Compound 140]
4.70 to 6.00

// field: pIC50; key: C[C@H](NC(=O)c1cc(C(F)(F)F)nn1Cc1cccnc1)c1nc(-c2ccnc(C(F)(F)F)c2)no1 ; value = ≥ 6.00
